Target Under Test: fibrinogen (Bos taurus, UniProt P02672+P02676+P12799)
Sequence (P02672 20-615): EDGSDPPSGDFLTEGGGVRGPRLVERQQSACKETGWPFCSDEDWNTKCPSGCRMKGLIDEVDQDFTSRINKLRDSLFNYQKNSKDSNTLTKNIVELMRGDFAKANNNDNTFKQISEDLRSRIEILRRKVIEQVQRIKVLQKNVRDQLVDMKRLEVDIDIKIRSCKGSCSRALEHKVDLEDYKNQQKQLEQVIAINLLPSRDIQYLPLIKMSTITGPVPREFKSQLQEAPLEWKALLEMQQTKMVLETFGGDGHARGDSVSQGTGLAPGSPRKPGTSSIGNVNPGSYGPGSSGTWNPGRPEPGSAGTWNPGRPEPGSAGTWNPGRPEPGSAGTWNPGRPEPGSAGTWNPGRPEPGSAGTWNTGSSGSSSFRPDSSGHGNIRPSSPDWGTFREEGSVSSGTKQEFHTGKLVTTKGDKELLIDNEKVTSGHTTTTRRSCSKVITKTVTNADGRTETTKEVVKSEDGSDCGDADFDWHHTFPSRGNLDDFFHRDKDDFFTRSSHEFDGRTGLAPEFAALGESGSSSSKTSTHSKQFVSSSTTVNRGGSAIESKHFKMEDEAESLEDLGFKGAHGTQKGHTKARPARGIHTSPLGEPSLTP
Sequence (P02676 whole entry): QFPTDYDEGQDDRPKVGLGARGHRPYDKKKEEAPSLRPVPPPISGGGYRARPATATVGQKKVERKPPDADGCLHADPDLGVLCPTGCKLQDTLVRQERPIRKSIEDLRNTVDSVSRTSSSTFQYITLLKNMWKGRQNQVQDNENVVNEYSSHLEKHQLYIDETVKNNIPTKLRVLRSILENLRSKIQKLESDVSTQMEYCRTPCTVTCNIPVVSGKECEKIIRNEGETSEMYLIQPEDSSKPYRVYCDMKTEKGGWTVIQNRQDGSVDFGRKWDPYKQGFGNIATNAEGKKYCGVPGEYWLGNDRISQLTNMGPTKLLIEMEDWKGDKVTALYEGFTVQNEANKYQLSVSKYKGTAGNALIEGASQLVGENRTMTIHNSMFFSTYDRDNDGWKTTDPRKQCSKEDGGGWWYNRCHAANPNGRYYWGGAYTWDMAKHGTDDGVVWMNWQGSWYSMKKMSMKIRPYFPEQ
Sequence (P12799 25-444): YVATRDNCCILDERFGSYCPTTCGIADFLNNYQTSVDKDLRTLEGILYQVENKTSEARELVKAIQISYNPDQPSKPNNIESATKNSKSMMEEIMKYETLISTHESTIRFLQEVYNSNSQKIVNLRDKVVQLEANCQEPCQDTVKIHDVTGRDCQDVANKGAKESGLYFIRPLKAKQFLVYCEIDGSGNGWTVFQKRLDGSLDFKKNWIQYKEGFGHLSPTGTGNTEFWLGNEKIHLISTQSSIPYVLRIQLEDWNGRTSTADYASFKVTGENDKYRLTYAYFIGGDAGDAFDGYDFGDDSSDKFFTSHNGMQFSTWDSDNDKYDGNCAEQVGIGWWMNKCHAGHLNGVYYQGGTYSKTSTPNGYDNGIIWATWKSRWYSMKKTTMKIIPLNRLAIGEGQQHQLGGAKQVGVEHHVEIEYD
Experiment Description: SPR adsorption of fibrinogen to SAMs / grafted polymer films
Assay type: binding, bovine
Run Parameters: fibrinogen; single-component SAMs (a) and mixed SAMs (b)
Where a SMILES comes first, the peptide text is derived from it. [ ]: non-standard residue; d: D form. Sar = CNCC(=O)O
Measured Metric: dR/dt on
State the result as a value with its unit after it.

response.value for CNC[C@H](OC)[C@H](OC)[C@H](OC)[C@H](COC)OC (field: dR/dt on) = 50 ±50 RU/sec

Notebook: CC(=O)N1CCNCC1 , dR/dt on read as 120 ±70 RU/sec

Given item CN(CCN(C)P(=O)(N(C)C)N(C)C)C(=O)CCCCCCCCCCS , the value recorded as its dR/dt on is 83 ±40 RU/sec

The molecule identified as CC(=O)N1CCN(C(=O)CCCCCCCCCCCCCCCS)CC1 registered its dR/dt on at 22 ±10 RU/sec

Per the record, COC[C@H](OC)[C@H](OC)[C@H](OC)[C@@H](CN(C)C(=O)CCCCCCCCCCS)OC has dR/dt on of 30 ±14 RU/sec

// NCCOCCOCCO [Entry 3b, H(OCH2CH2)3NH2, reference compound] : dR/dt on value = 30 RU/sec

For reference, reported dR/dt on for CNCC(=O)N(C)CC(=O)N(C)CC(=O)N(C)C [H(CH3)N(Sar)3N(CH3)2] (H-[Sar]-[Sar]-[Sar]-NMe2) stands at 60 RU/sec

* * *

The entries below are paired with their reported % MLlys 30 min.
Target Under Test: lysozyme (Gallus gallus)
Sequence (P00698 19-147): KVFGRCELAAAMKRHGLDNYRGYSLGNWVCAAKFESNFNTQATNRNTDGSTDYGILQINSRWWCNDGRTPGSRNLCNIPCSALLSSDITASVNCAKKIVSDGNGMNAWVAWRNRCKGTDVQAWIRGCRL
Experiment Description: SPR adsorption of lysozyme to SAMs / grafted polymer films
Assay type: binding
Run Parameters: mixed SAM —CONRR′/—CO2H; 1 mg/mL lysozyme flowed 30 min
The reply should contain only the number, in %.

Example results:
1) N#CCCNCCC#N
40
2) OCCOCCN1CCNCC1
27
3) Nc1ccc(O[C@@H]2O[C@H](CO)[C@@H](O)[C@H](O)[C@H]2O)cc1
83
4) CNCCN(C)C(=O)N(C)C
11
5) CNC[C@H](OC)[C@H](OC)[C@H](OC)[C@H](COC)OC
6.1
6) C[N+](C)(C)CCN.[Cl-]
3.9

Memo: CNCC(=O)N(C)C , reported % MLlys 30 min: 2.4

* * *

Target Under Test: UniProtKB P00698
Experiment Description: SPR adsorption of lysozyme to SAMs / grafted polymer films
Type: binding
Run Parameters: single-component SAMs (a) and mixed SAMs (b)
Measured Metric: % Lys off (%)
Expressed in %, but write only the number.

Illustrative cases are given below, each with its answer.
1. CC(=O)N1CCNCC1
400
2. CNC[C@H](OC)[C@H](OC)[C@H](OC)[C@H](COC)OC
17
3. COC[C@H](OC)[C@H](OC)[C@H](OC)[C@@H](CN(C)C(=O)CCCCCCCCCCS)OC
7
4. CC(=O)N1CCN(C(=O)CCCCCCCCCCCCCCCS)CC1
110

Now look at this entry.
response.value for CN(CCN(C)P(=O)(N(C)C)N(C)C)C(=O)CCCCCCCCCCS (field: % Lys off) = 240
